Overview of reported Anti-CD28 Fab signal in the presence of CD28 across a group of binders:
molecular target: T1, Anti-CD28 Fab (SEQ ID NOs: 696, 697); test: phage binding ELISA; Fab coated wells pre-incubated with CD28 antigen as competitor, anti-M13 HRP detection
T1 construct: Biotinylated and captured on neutravidin coated plates in the phage ELISA
T1 sequence (VH, as listed by the source, chain 1 of 2): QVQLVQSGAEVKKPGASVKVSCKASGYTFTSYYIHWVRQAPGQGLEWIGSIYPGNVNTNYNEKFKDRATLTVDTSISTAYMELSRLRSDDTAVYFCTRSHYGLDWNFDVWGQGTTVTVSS
T1 sequence (VL, as listed by the source, chain 2 of 2): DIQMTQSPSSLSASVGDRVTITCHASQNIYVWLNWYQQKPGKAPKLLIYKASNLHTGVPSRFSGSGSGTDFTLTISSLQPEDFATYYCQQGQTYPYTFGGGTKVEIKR
measure: Anti-CD28 Fab signal in the presence of CD28

* TCAAGAAWPWPQCL [Phage-1337] | 0.08
* YCMGHSHEHIWKCL [Phage-476] | 0.07
* TCAAGAAWGWPLCF [Phage-1340] | 0.07
* YCAGHSHEYLAKCE (also called YCAGHSHEYLAKCE) [Phage-477] | 0.06
* LCAAGATYPWPTCL [Phage-1344] | 0.06
* TCAAGATWSWPACF [Phage-1339] | 0.07
* LCAAGASWPWPVCL [Phage-1335] | 0.08
* TCSAGATYTWPKCF [Phage-1338] | 0.06
* TCSAGAAYPWPLCL [Phage-1342] | 0.08
* YCAGHTEEHYVKCM [Phage-475] | 0.07
* YCAGMSTIQLWLKC [Phage-473] | 0.09
* TCSAGATWPWPICL [Phage-1334] | 0.07
* TCSAGASYPWPLCL [Phage-1336] | 0.06
* YCAGHMPQYEVKCL [Phage-474] | 0.06
* TCSAGAAYSWPACF [Phage-1343] | 0.15
* LCAAGATYPWPLCL [Phage-1341] | 0.07
